# tested_on: Urotensin-2 receptor (Rattus norvegicus)
# Sequence (P49684 whole entry): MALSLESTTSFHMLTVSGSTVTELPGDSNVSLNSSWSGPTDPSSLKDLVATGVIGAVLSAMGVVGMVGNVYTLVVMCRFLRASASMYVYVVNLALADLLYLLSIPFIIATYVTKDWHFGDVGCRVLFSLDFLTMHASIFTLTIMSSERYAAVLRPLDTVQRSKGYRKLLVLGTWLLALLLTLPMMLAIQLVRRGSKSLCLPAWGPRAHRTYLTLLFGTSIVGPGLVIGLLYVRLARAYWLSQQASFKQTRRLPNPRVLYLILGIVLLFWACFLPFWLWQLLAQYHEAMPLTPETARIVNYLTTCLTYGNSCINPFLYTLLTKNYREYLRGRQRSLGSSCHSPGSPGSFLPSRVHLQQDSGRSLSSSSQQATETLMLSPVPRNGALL
# assay_name: Modulation of urotensin-2 receptor in Sprague-Dawley rat thoracic aortic ring assessed as human urotensin-2 pEC50 for induction of aortic ring contraction at 10 uM preincubated for 15 mins followed by human urotensin-2 addition (Rvb = 8.71 +/- 0.08 no unit)
EC50 values by entry

{"columns": ["entry_smiles", "EC50 / nM"],
 "data": [
  ["NCCCC[C@@H]1N=C(c2ccc3ccccc3c2)c2[nH]c(C(=O)O)cc2N(CCc2ccc(O)cc2)C1=O", 4.7],
  ["NCCCC[C@@H]1N[C@@H](c2ccc3ccccc3c2)c2[nH]c(C(=O)O)cc2N(CCc2ccc(O)cc2)C1=O", 1.5],
  ["NCCC[C@@H]1N[C@@H](c2cccc3ccccc23)c2[nH]c(C(=O)O)cc2N(CCc2ccc(O)cc2)C1=O", 4.8],
  ["NCCC[C@@H]1N=C(c2ccc(-c3ccccc3)cc2)c2[nH]c(C(=O)O)cc2N(CCc2ccc(O)cc2)C1=O", 12]
]}

----------
# tested_on: UniProt:P49684
# assay_name: Modulation of urotensin-2 receptor in Sprague-Dawley rat thoracic aortic ring assessed as human urotensin-2 EC50 for induction of aortic ring contraction at 14 uM preincubated for 15 mins followed by human urotensin-2 addition (Rvb = 1.9 nM)

{"columns": ["entry_smiles", "tested_on", "EC50 [nM]"],
 "data": [
  ["NCCCC[C@@H]1N[C@@H](c2ccc(-c3ccccc3)cc2)c2[nH]c(C(=O)O)cc2N(CCc2ccc(O)cc2)C1=O", "UniProt:P49684", 8.8]
]}

----------
# tested_on: Urotensin-2 receptor (Rattus norvegicus, UniProt P49684)
# assay_name: Modulation of urotensin-2 receptor in Sprague-Dawley rat thoracic aortic ring assessed as human urotensin-2 pEC50 for induction of aortic ring contraction at 14 uM preincubated for 15 mins followed by human urotensin-2 addition (Rvb = 8.71 +/- 0.08 no unit)
pEC50: −log10 of the molar value.

{"columns": ["entry_smiles", "pEC50"],
 "data": [
  ["NCCCC[C@@H]1N[C@@H](c2ccc(-c3ccccc3)cc2)c2[nH]c(C(=O)O)cc2N(CCc2ccc(O)cc2)C1=O", 8.06]
]}
